Measured IC50 of individual entries
assay.system: EHMT1 (Homo sapiens, UniProt Q9H9B1)
Sequence (Q9H9B1 whole entry, species assumed): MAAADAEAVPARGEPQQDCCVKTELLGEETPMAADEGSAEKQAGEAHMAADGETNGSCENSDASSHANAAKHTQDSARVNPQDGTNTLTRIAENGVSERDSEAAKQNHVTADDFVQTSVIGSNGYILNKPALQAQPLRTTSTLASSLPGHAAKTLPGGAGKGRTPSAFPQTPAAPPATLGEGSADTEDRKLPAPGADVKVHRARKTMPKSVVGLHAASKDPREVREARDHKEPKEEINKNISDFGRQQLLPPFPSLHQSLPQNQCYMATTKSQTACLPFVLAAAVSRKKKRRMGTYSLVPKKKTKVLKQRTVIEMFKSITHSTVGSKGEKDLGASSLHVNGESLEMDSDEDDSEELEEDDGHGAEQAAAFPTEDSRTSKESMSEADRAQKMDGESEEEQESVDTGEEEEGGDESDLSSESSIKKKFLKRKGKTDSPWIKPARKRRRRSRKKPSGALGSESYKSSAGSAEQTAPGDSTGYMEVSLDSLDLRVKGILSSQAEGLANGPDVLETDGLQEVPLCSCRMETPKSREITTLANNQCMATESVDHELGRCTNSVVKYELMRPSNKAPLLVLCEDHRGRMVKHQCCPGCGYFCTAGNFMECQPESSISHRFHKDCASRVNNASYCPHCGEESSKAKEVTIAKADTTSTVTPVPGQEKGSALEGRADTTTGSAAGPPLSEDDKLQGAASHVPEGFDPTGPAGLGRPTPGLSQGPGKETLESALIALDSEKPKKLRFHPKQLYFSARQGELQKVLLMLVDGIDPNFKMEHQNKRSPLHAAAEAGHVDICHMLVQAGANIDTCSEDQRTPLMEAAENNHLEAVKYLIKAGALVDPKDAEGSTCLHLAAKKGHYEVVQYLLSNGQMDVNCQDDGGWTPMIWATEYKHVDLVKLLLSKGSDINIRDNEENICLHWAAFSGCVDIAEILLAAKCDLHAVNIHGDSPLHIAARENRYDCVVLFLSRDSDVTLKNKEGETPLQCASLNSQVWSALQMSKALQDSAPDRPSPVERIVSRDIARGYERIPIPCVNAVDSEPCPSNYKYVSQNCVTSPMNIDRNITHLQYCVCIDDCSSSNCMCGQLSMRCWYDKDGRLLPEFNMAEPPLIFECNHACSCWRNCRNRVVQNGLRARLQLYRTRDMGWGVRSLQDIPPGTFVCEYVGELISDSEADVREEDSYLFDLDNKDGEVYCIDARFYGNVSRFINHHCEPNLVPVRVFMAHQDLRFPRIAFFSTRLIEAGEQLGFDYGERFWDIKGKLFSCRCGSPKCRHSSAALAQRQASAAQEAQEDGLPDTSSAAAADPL
test.name: EHMT1 enzyme assay on peptide substrate (EHMT1 PEP)
Format: biochemical
recorded.conditions: Table II; read-out: EHMT1 PEP (IC50 μM)

COc1ccc(Nc2nccc(N(C)CCO)n2)cc1OCCCN1CCCC1 [Compound 150]	1 to 10 µM

Report IC50, nothing else, for this compound: COc1ccc(Nc2nccc(NCC3CCNCC3)n2)cc1OCCCC1CCCC1 [Compound 109] 1 to 10 µM

Report IC50, nothing else, for this compound: COc1ccc(Nc2nccc(N3CCC(C(N)=O)CC3)n2)cc1OCCCN1CCCC1 [Compound 153] 1 to 10 µM

Report IC50, nothing else, for this compound: COc1ccc(Nc2cc(NCC3CCNCC3)ccn2)cc1OCCCN1CCCC1 [Compound 10] 0.1 to 1 µM

Report IC50, nothing else, for this compound: COc1ccc(Nc2nccc(NCC3CCN(S(C)(=O)=O)CC3)n2)cc1OCCCN1CCCC1 [Compound 199] 0.1 to 1 µM

Report IC50, nothing else, for this compound: COc1ccc(Nc2nccc(CCN3CCN(C(C)=O)CC3)n2)cc1OCCCN1CCCC1 [Compound 196] > 10 µM

Report IC50, nothing else, for this compound: CNCc1cnc(Nc2ccc(OC)c(OCCCN3CCCC3)c2)nc1 [Compound 215] > 10 µM

Report IC50, nothing else, for this compound: CNc1ncc(C(F)(F)F)c(Nc2ccc(OC)c(OCCCN3CCCC3)c2)n1 [Compound 235] > 10 µM

Report IC50, nothing else, for this compound: CCCCNc1nccc(NCCCN2CCCC2)n1 [Compound 74] > 10 µM
